- ASSAY: chemical genetic growth profiling, strain panel (AID 1159580);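 also: tested at 20 µM; growth read once vehicle control cultures reached saturation at 30 °C; lower values mean less growth of the strain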
- DETAILS: S. cerevisiae deletion strains, growth OD, locus YOR106W, strain vam3
Among all 5,500 compounds or so, about 2,000 (36%) were called active. Inconclusive results (about 18%) are left out. Rule as the data show it: active = normalized growth mostly below about 0.91 (no sharp cut-off); inconclusive = no clear call, values can overlap the other calls; inactive = mostly above about 0.92. The list shows a part of the results.
Respond using exactly one of the listed classes: TRUE for active, FALSE for inactive

Input line: Please state the recorded outcome for this compound: O=c1c2ccccc2oc2ccccc12
Output line: FALSE

Input line: // param item: CC(=O)O[C@H]1C[C@@H](O)C(C)(C)C2C[C@@H](OC(C)=O)[C@]3(C)C(CC[C@@]4(C)[C@H](c5ccoc5)OC(=O)C5OC543)[C@]21C (stereo partly drawn) ; yields the recorded call
Output line: FALSE

Input line: Assay result, entry O=C(O)c1cc(=O)c2ccccc2o1 — outcome?
Output line: FALSE

Input line: Recorded test call requested for CC(=O)O[C@@H]1CC2C(C)(C)CCC(=O)[C@]2(C)C2CC[C@@]3(C)[C@H](c4ccoc4)OC(=O)C4OC43[C@@]21C (stereo partly drawn)
Output line: FALSE

Input line: How did this test come out for CC(C)=CCc1c2c(c(O)c3c(=O)c(O)c(-c4ccccc4)oc13)C=CC(C)(C)O2 ?
Output line: TRUE

Input line: Called result for N[C@H](CO)Cc1ccccc1
Output line: FALSE

Input line: State the result this test recorded for CC(=O)O[C@@H]1CC2C(C)(C)C(=O)CC[C@]2(C)C2CC[C@@]3(C)[C@H](c4ccoc4)OC(=O)C4OC43[C@@]21C (stereo partly drawn) .
Output line: FALSE

Input line: Status in this test for CC(=O)O[C@H]1C[C@@]2(C)[C@H](c3ccoc3)OC(=O)[C@H]3O[C@]32[C@@]2(C)C1[C@]1(C)C(C[C@H]2OC(C)=O)C(C)(C)[C@H](OC(C)=O)C[C@@H]1OC(C)=O (stereo partly drawn) ?
Output line: FALSE

----------
- ASSAY: chemical genetic growth profiling, strain panel (AID 1159580);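 also: tested at 20 µM; growth read once vehicle control cultures reached saturation at 30 °C; lower values mean less growth of the strain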
- DETAILS: S. cerevisiae deletion strains, growth OD, locus YOL136C, strain PFK27, stronger effect = lower value
About 2,000 (36%) of roughly 5,500 compounds were called active. Inconclusive results (about 18%) are left out. This is one part of the list.
// NB: equality with 0.9 counts as NOT MET; only normalized growth strictly below is MET

Input line: Lab note: normalized growth threshold 0.9. Does this compound come in strictly under it? CCCc1cnc(N2CCN(CC(=O)N(c3ccccc3)C3CCCCC3)CC2)nc1
Output line: NOT MET

Input line: Dear reviewer, please state whether CCC(C)Cn1c(Sc2ncc([N+](=O)[O-])s2)n[nH]c1=O (centres undefined) has normalized growth strictly beneath 0.9.
Output line: MET

Input line: For Cc1cc(C(=O)O/N=C(/N)CSc2ncccc2C(F)(F)F)no1 , is the recorded normalized growth below the cut-off of 0.9?
Output line: NOT MET

Input line: Input COc1cc(NC(=S)Nc2ccccc2OC(F)(F)F)cc(C(F)(F)F)c1 ; condition: normalized growth strictly below 0.9. Does it hold?
Output line: NOT MET

Input line: Hi there! Is normalized growth for C#Cc1cccc(N=Cc2cc(Cl)cc(Br)c2O)c1 below 0.9, do you know?
Output line: MET

Input line: State whether 0.9 exceeds normalized growth recorded for CC(C)c1ccc(-c2cc(=O)c3ccccc3o2)cc1 .
Output line: MET
